- ASSAY_DETAILS: antimalarial activity against Dd2 strain (AID 2302);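 further: 0% = DMSO untreated growth and 100% = chloroquine plus artemisinin killed control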
- RUN_CONDITIONS: P. falciparum Dd2 in RBCs, LDH growth readout, 72 h; at 2 µM
Activity calls are given as the source filed them.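 How the source made its calls: active means growth inhibition above 50% at the single 2 µM test dose, taken to imply half-maximal potency below 2 µM; inactive means the rest.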
Outcome codes: 1.0 = active, 0.0 = inactive

| MOLECULE | ASSIGNED_CATEGORY |
| --- | --- |
| N#Cc1cc(C(=O)Nc2ccccc2)c(N)nc1SCC(=O)NC(c1ccccc1)c1cccs1 (stereo not given) | 1.0 |
| CN(C)CCOc1ccc(-c2cc(-c3ccc(Cl)c(O)c3)c(-c3ccnc(N)n3)o2)cc1 | 1.0 |
| COc1ccc(-c2cnc3[nH]cc(-c4ccncc4)c3c2)cc1OC | 1.0 |
| O=C(/C=C/c1ccc(Cl)c(Cl)c1)NCCCCCN1CCCN(C(=O)Nc2cc(F)cc(F)c2)CC1 | 0.0 |
| COc1ccc(Nc2ncc(C#N)c(Nc3ccccc3C(N)=O)n2)cc1N1CCN(C)CC1 | 1.0 |

----------
- ASSAY_DETAILS: ovarian cancer cell viability with rucaparib, profiling panel, oncology-focused library, rucaparib conditional (AID 1508598)
- RUN_CONDITIONS: patient-derived ovarian cancer cells, CellTiter-Glo viability, 144 h; at 0.00488 µM; OCI-P5x cells; with rucaparib 20 µM; hits give low values; 100% = cells with rucaparib alone

| COMPOUND | viability (%) |
| --- | --- |
| CS(=O)c1ccc(-c2nc(-c3ccc(F)cc3)c(-c3ccncc3)[nH]2)cc1 (stereo not drawn) | 108 |
| CC(C)c1onc(-c2c(Cl)cccc2Cl)c1COc1ccc(/C=C/c2cccc(C(=O)O)c2)c(Cl)c1 | 102 |
| Cc1ccc(S(=O)(=O)/C=C/C#N)cc1 | 94.4 |

----------
A collection of molecules and their measured log fold change Tl+ flux
- Test system: R275C/beta2Delta
- ASSAY_DETAILS: modulators of BK channel variants, profiling panel, selectivity assay, cell-based, U2OS BacMam, thallium flux, beta subunits (AID 1259406);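 further: initial slope of Thallos dye fluorescence rise after thallium is added; log ratio against the mean of 0.3% DMSO vehicle wells on the same plate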
- RUN_CONDITIONS: at 30 µM

| MOLECULE | log fold change Tl+ flux |
| --- | --- |
| COc1ccc(Cl)cc1N1C(=O)C=C(c2ccccc2)C1=O | 0.00976 |
| Cc1nc(C)c(C(=O)O)c(-c2ccsc2)c1C(=O)O | -0.00263 |
| Cc1cc(C(=O)N2CCN(c3ncccc3C#N)CC2)no1 | 0.0483 |
| Cc1cc(NC(=O)Nc2nc(-c3ccc(C)c(Cl)c3)c(C)s2)c(C(F)(F)F)o1 | 0.015 |
| CC(C(O)c1ccc(O)cc1)N1CCC(Cc2ccccc2)CC1 (stereo unspecified) | -0.218 |
| O=C(Nc1csc(Cc2c(Cl)cccc2Cl)n1)NN1CCOCC1 | 0.0159 |
| CC(C)C1COC(c2cccc(C3=NC(C(C)C)CO3)n2)=N1 (stereo unspecified) | -0.00732 |
| O=c1c(Cl)c(N2CCOCC2)cnn1-c1cnc2ccccc2n1 | 0.032 |
| CN(NC(=O)c1ccc(Cl)s1)c1cnn(-c2cc(Cl)cc(Cl)c2)c(=O)c1Cl | 0.046 |
| O=C(CNc1cc(C(F)(F)F)cc(C(F)(F)F)c1)c1ccc(Cl)cc1 | 0.000503 |
| O=C1c2ccccc2C(=O)N1CNc1ccc(Oc2ccc(Cl)cc2)cc1 | 0.0194 |
| Cc1c(C(=O)CSc2n[nH]c(=O)n2C(C)c2ccccc2)sc2ccc(Cl)cc12 (stereo unspecified) | 0.0219 |
| Cc1cc(C)c2cc(C(=O)Nc3ccccc3SCc3cccc(Cl)c3F)[nH]c2c1 | 0.02 |
| CC(C)(C)c1cc2nc(C(F)(F)F)cc(NN=Cc3ccccc3)n2n1 | -0.0336 |
| O=c1c(O[C@@H]2O[C@H](CO)[C@H](O)[C@H](O)[C@H]2O)c(-c2ccc(O)c(O)c2)oc2cc(O)cc(O)c12 | 0.0189 |
| CC(=O)C(=CN(C)C)Sc1ccc(Cl)cc1 | 0.0244 |
| Clc1cc(Cl)c(NN=Cc2cc(C#Cc3ccccc3)cs2)c(Cl)c1 | -0.0137 |
| Cc1cnc(N)c(C)n1 | 0.039 |
| CO[C@H]1C=CO[C@@]2(C)Oc3c(C)c(O)c4c(O)c(c5c(c4c3C2=O)NC2(CCN(CC(C)C)CC2)N=5)=NC(=O)C(C)=CC=C[C@H](C)[C@H](O)[C@@H](C)[C@@H](O)[C@@H](C)[C@H](OC(C)=O)[C@@H]1C | -0.0385 |
| CSc1nc(N)nc(-c2cccs2)n1 | 0.042 |
| CCOC(=O)c1cnn(C(=O)c2ccc(-n3c(C)ccc3C)cc2)c1N | 0.0233 |
| O=C(NC1CCSC1)c1ccccc1NS(=O)(=O)c1ccccc1 (stereo unspecified) | -0.158 |
| CCC1=C[C@H]2CN(C1)Cc1c([nH]c3ccccc13)[C@@](C(=O)OC)(c1cc3c(cc1OC)N(C)[C@H]1[C@@](O)(C(=O)OC)[C@H](OC(C)=O)[C@]4(CC)C=CCN5CC[C@]31[C@@H]54)C2 | 0.0329 |
| N#CC(CCC(=O)O)(CCC(=O)O)S(=O)(=O)c1ccccc1 | 0.0211 |
| COC(=O)C=C1NCC(O)CNC1=O (stereo unspecified) | 0.0117 |
| Fc1cccc(Cl)c1CSc1nccn1-c1cccnc1 | 0.0125 |
| COC(=O)c1cc(C)nc(Sc2n[nH]c(-c3cc(Cl)cc(Cl)c3)n2)n1 | 0.0581 |
| O=C(ON(C(=O)c1ccc(F)cc1)C1C2CC3CC(C2)CC1C3)c1ccc(F)cc1 (stereo unspecified) | 0.00798 |
| CCCn1c(=O)c(Br)cn(-c2ccccc2C)c1=O | -0.00562 |
| COC(=O)c1sccc1NN=C(C)c1ccc(NC(=O)C(Cl)Cl)cc1 | -0.0375 |
| CSc1nc(C)nc(Sc2cccc(C(F)(F)F)c2)c1C#N | -0.023 |
